System: MDA-MB-435
Permitted responses: YES = active, NO = inactive

Which outcome was entered for the compound CO[C@H](C(=O)[C@@H](O)[C@@H](C)O)[C@@H]1Cc2cc3cc(O[C@H]4C[C@@H](O[C@H]5C[C@@H](O)[C@H](O)C(C)O5)[C@H](O)C(C)O4)c(C)c(O)c3c(O)c2C(=O)[C@H]1O[C@H]1C[C@@H](O[C@H]2C[C@@H](O[C@H]3C[C@@H](OC)[C@H](O)C(C)O3)[C@@H](O)C(C)O2)C(O)(O)C(C)O1 (some centres not stated) in this test?
YES

Which outcome was entered for the compound COc1cccc(C2CC(c3cc(OC)c(OC)c(OC)c3)=NN2)c1 (configuration not stated) in this test?
NO

Which outcome was entered for the compound "CC(=O)C1=C(O)C=C2Oc3c(C(=O)/C=C/c4cc(C(F)(F)F)cc(C(F)(F)F)c4)c(O)c(C)c(O)c3[C@]2(C)C1=O" in this test?
NO

Which outcome was entered for the compound "Cc1ccccc1NC(=S)Nc1ccccn1" in this test?
NO

###

This listing pairs molecules with measured GI50.
System: RXF 393 renal
Assay: NCI tumour cell line growth inhibition, 48 h

Reference set (5 entries):
State GI50 (RXF 393 renal) of "C=CC(=O)Nc1ccc(Nc2nccc(-c3ccc(N4CCCC4)c(C#N)c3)n2)cc1" .
545 nM

State GI50 (RXF 393 renal) of "COc1ccc(C#Cc2ccccc2C#CCCCCO)cc1" .
16000 nM

State GI50 (RXF 393 renal) of COc1cccc(C2CC(c3cc(OC)c(OC)c(OC)c3)=NN2)c1 (stereo unspecified) .
8750 nM

State GI50 (RXF 393 renal) of "COc1cc(-c2nn3c(/C=C4/C(=O)Nc5ccccc54)c(-c4ccc(C)cc4)nc3s2)cc(OC)c1OC" .
2240 nM

State GI50 (RXF 393 renal) of "C=C(CNC(=O)Nc1ccc(-c2ccccc2)cc1)c1ccc(C(=O)Nc2ccccc2N)cc1" .
23700 nM

Moving on to the next molecule.
State GI50 (RXF 393 renal) of "O=C(/C=C/c1ccc(B(O)O)cc1)/C=C/c1ccc(B(O)O)cc1" .
1700 nM

###

Tested on: MCF7 breast
Test: NCI tumour cell line growth inhibition, 48 h; in the data active = GI50 below about 0.43 µM; inactive = the rest
Permitted responses: active, inactive

Below, 5 compounds whose answers are already recorded.
Which outcome was entered for the compound Cc1[nH]ncc1-c1cc2nc(C3CC4CCN3CC4)[nH]c(=O)c2s1 (stereo not drawn) in this test?
inactive

Which outcome was entered for the compound "O=C(/C=C/c1ccc(B(O)O)cc1)/C=C/c1ccc(B(O)O)cc1" in this test?
active

Which outcome was entered for the compound "O=P([O-])(O)OP(=O)([O-])O.[NH-][C@H]1CCCC[C@@H]1[NH-].[OH-].[OH-].[Pt+4]" in this test?
inactive

Which outcome was entered for the compound "CN(C)CCCOc1ccccc1NC1=C(Cl)C(=O)C(Nc2ccccc2OCCCN(C)C)=C(Cl)C1=O" in this test?
active

Which outcome was entered for the compound "CC(=O)N1CCN(C2=Nc3ccccc3CO2)C1=S" in this test?
inactive

Continuing:
Which outcome was entered for the compound "COc1ccc(C#Cc2ccccc2C#CCCCCO)cc1" in this test?
inactive

Which outcome was entered for the compound "Cc1nc2sccn2c1/C=C1/C(=O)Nc2ccccc21" in this test?
inactive

Which outcome was entered for the compound c1ccc(CNC2CC(NCc3ccccn3)CC(NCc3ccccn3)C2)nc1 (stereo not drawn) in this test?
inactive

###

Test system: SK-MEL-5 melanoma
Assay: NCI tumour cell line growth inhibition, 48 h; in the data active = GI50 below about 0.43 µM; inactive = the rest
Permitted responses: active, inactive

Which outcome was entered for the compound "C=C(Cn1c(=O)c2ccccc2c2ccccc21)c1ccc(C(=O)Nc2ccccc2N)cc1" in this test?
inactive

Which outcome was entered for the compound "Cc1ccccc1NC(=S)Nc1ccccn1" in this test?
inactive

Which outcome was entered for the compound "CN(C)CCCOc1ccccc1NC1=C(Cl)C(=O)C(Nc2ccccc2OCCCN(C)C)=C(Cl)C1=O" in this test?
inactive

Which outcome was entered for the compound "NS(=O)(=O)c1ccc(NC(=O)c2ccc(NC3=C(Cl)C(=O)N(Cc4ccccc4)C3=O)cc2)cc1" in this test?
inactive

Which outcome was entered for the compound COc1cccc(C2CC(c3cc(OC)c(OC)c(OC)c3)=NN2)c1 (stereo not drawn) in this test?
inactive

Which outcome was entered for the compound CC1[C@@H]2[C@@H](C=C3C4CCC5Cc6nc7c(nc6C[C@@]5(C)C4C[C@H](O)[C@]32CO)CC2CCC3C4=C[C@H]5O[C@@]6(O[C@@](C)(CO)C[C@@H]6O)C(C)[C@@]5(O)[C@]4(C)[C@@H](O)CC3[C@]2(C)C7)O[C@]12CCC(C)(C)O2 (stereo partly drawn) in this test?
active

Which outcome was entered for the compound "Cc1ccc(C(=O)N(CCCN)[C@@H](c2nc3cc(Cl)ccc3c(=O)n2Cc2ccccc2)C(C)C)cc1" in this test?
active

Which outcome was entered for the compound COc1cccc2c1C(=O)c1c(O)c3c(c(O)c1C2=O)CC(O)(C(C)=O)CC3OC1CC(N)C(O)C(C)O1 (stereo not drawn) in this test?
inactive

###

This listing pairs compounds with measured TGI.
System: MALME-3M melanoma
Test: NCI tumour cell line growth inhibition, 48 h
Just the number in µM, nothing appended.

Reference set (3 entries):
Return the recorded TGI value; entry: "COc1ccc(Cn2c(C)nc3c2C(=O)c2ccccc2C3=O)cc1"
19

Return the recorded TGI value; entry: CCCCNC1CCC2(SCCS2)c2[nH]c3ccccc3c21 (stereo not given)
33.8

Return the recorded TGI value; entry: "COC(=O)[C@@H](NC(=O)NC(=O)NC(=O)CI)C(C)C"
3.64

Moving on to the next compound.
Return the recorded TGI value; entry: CCOc1ccc2nc(NC(=O)C(=O)C(C(=O)c3ccccc3-c3ccccc3)C3OC(=O)c4ccccc43)sc2c1 (stereo not given)
34.8

###

System: SF-295 CNS
Assay: NCI tumour cell line growth inhibition, 48 h
experimental_readout: TGI (µM)
Just the number in µM, nothing appended.

Reference set (4 entries):
Return the recorded TGI value; entry: "CN(C)c1ccc2c(c1)C(=O)N(OS(=O)(=O)c1ccc([N+](=O)[O-])cc1)C2=O"
62.7

Return the recorded TGI value; entry: "CCC[CH2][Sn]([CH2]CCC)([O]C(=O)c1c(F)cccc1F)[O]C(=O)c1c(F)cccc1F"
2.9

Return the recorded TGI value; entry: Clc1ccc2c(SCC3CO3)c3ccccc3nc2c1 (centres undefined)
42.1

Return the recorded TGI value; entry: "CC[n+]1cnc(N)c2c(-c3ccc(Cl)cc3)cn(-c3ccc(C)cc3)c21"
25.3

Moving on to the next molecule.
Return the recorded TGI value; entry: "C#CCC[C@@H]1O[C@@]1(C)CC/C=C(\C)CC/C=C/C=O"
79.4

###

This listing pairs molecules with measured TGI.
System: NCI-H226 lung
Assay: NCI tumour cell line growth inhibition, 48 h

Return the recorded TGI value; entry: "O=C(NCCCCCCCCNC(=O)c1cnc2ccccc2n1)c1cnc2ccccc2n1"
> 100 µM

Return the recorded TGI value; entry: "O=C(O)c1ccccc1.[Ag]"
> 100 µM

Return the recorded TGI value; entry: COc1c2c(c3c(c1C1OC(C)[C@@H](C)O1)CC(C)(C)O3)C(=O)c1ccccc1C2=O (some centres not stated)
> 100 µM

Return the recorded TGI value; entry: "c1ccc(C2=NC3(CCCCC3)N(c3nc4ccccc4s3)N2)nc1"
65.6 µM

Continuing:
Return the recorded TGI value; entry: "O=C(Cc1ccccc1)NCCc1ccc(O)c(O)c1"
> 100 µM

Return the recorded TGI value; entry: COc1ccc(/C(=N/NC(N)=O)C2(O)C(=O)Nc3ccc([N+](=O)[O-])cc32)cc1 (configuration not stated)
> 100 µM

Return the recorded TGI value; entry: C(=Nc1ccccc1)C1CCCC[N-]1.C(=Nc1ccccc1)C1CCCC[N-]1.[Cu+2].[O-][Cl+3]([O-])([O-])O (configuration not stated)
50 µM

Return the recorded TGI value; entry: COc1cccc2c1OC1c3ccccc3OCC1C2 (configuration not stated)
> 100 µM

Return the recorded TGI value; entry: "Cc1c2cc(Cl)ccc2n2c(=O)c3ccccc3[nH]c(=O)c12"
> 100 µM

Return the recorded TGI value; entry: "C=C(Cn1c(=O)c2ccccc2c2ccccc21)c1ccc(C(=O)Nc2ccccc2N)cc1"
> 100 µM

###

This listing pairs compounds with measured TGI.
Test system: SK-OV-3 ovarian
Experiment: NCI tumour cell line growth inhibition, 48 h

Reference set (2 entries):
Return the recorded TGI value; entry: CN(C)CC(/C(Cc1ccccc1)=N\NC(=O)C[n+]1ccccc1)c1ccccc1 (configuration not stated)
> 100 µM

Return the recorded TGI value; entry: O=c1[nH]c(=O)n(C2CC(O)C(CO)O2)cc1I (configuration not stated)
> 100 µM

Continuing:
Return the recorded TGI value; entry: "CC(=O)N1CCN(C2=Nc3ccccc3CO2)C1=S"
> 100 µM

Return the recorded TGI value; entry: CC1=CC2CC(C)=C(CC[C@]3(C)CC[C@H]([C@@H](C)C(=O)O)OO3)C(C)(C)C2CC1 (some centres not stated)
3.68 µM

Return the recorded TGI value; entry: "C1=C\SS/C=C\SS/C=C\SS/C=C\SS/1"
> 100 µM

Return the recorded TGI value; entry: "O=C(CP(c1ccccc1)c1ccccc1)c1cccc(C(=O)CP(c2ccccc2)c2ccccc2)c1"
> 100 µM

Return the recorded TGI value; entry: CC[P+](C)(Cc1ccccc1)c1ccccc1 (configuration not stated)
> 100 µM
